The measurements presented in this section are drawn from PubChem BioAssay (NCI).

tested on: MDA-MB-435
readout.kind: GI50

In [3]: df
Out[3]:
                                   compound  readout_kind  observed_result
0  CN(C)CCS(=O)(=O)Nc1cc(-c2ccc3ncc(C#N)c(Nc4ccc(F)c(Cl)c4)c3c2)cnc1Cl          GI50           374 nM
1       Oc1ccccc1/C=N\NC(=S)N/N=C/c1ccccc1O          GI50          1970 nM
2  CCOC(=O)c1cc(NS(=O)(=O)c2ccc(C)cc2)cc(C(=O)OCC)c1          GI50         33600 nM
3  O=S(=O)(NCCCNc1cc(-c2cn(-c3ccccc3)nc2-c2cccc(O)c2)ccn1)c1ccc(Br)cc1          GI50          1700 nM
4  CC(C)Cc1ccc(C(C)C(=O)NCc2ccc(Cn3c(=O)sn(CCCI)c3=O)cc2)cc1 (stereo not given)          GI50           485 nM
5  COc1ccc(Cn2cc3c(c2-c2cc(OC)c(OC)c(OC)c2)CCc2c(CO)noc2-3)cc1          GI50          60.5 nM
6  Cc1c2c(nn1-c1ccc(S(=O)(=O)NC(=S)NC(=O)c3ccccc3)cc1)-c1ccccc1CC2          GI50         27900 nM
7  Cc1[nH]nc2ncc(C(=O)N3CCC[C@H]3c3ccc(Cl)cc3)cc12          GI50         98100 nM
8  CN(C)c1ccccc1[CH2][Ga]([Cl])[CH2]c1ccccc1N(C)C          GI50          1610 nM
9  COc1ccc(-c2[nH]nc(N)c2-c2cc(OC)c(OC)c(OC)c2)cc1          GI50          10.6 nM
